assay: Permeability of the compound at pH 7.4 by PAMPA; type: ADME; settings: read-out: permeability
Provide the recorded Papp for the entries that follow.
The number alone won't do; follow it with the unit.

Task item: What value of Papp has been recorded for this entry: CCNc1nc(OCCOC)nc2c1CN(C(=O)c1cc(C(C)C)c(O)cc1O)CC2
Reply: 71.5 ×10⁻⁶ cm/s

Task item: Requested field: Papp. Item: CCCOc1nc(OCCOC)nc2c1CN(C(=O)c1cc(C(C)C)c(O)cc1O)CC2
Reply: 87.7 ×10⁻⁶ cm/s

Task item: Using the record for CC(C)c1cc(C(=O)N2CCc3nc(OCCN4CCCC4)ncc3C2)c(O)cc1O , report its Papp.
Reply: 3.06 ×10⁻⁶ cm/s

Task item: Please give the measured Papp for this compound: CC(C)c1cc(C(=O)N2CCc3nc(OCCN4CCCCC4)ncc3C2)c(O)cc1O
Reply: 20.5 ×10⁻⁶ cm/s

Task item: What does the data say about its Papp? Entry: COCCOc1ncc2c(n1)CCN(C(=O)c1cc(C(C)C)c(O)cc1O)C2
Reply: 55.5 ×10⁻⁶ cm/s

Task item: I have this compound here, CCOc1nc(OCCOC)nc2c1CN(C(=O)c1cc(C(C)C)c(O)cc1O)CC2 , and I need its recorded Papp.
Reply: 77.3 ×10⁻⁶ cm/s

Task item: Sample COCCOc1nc2c(c(NC3CC3)n1)CN(C(=O)c1cc(C(C)C)c(O)cc1O)CC2 — what was its Papp?
Reply: 56.4 ×10⁻⁶ cm/s

Task item: GET /values?readout=Papp&item= CCN(CC)CCOc1ncc2c(n1)CCN(C(=O)c1cc(C(C)C)c(O)cc1O)C2
Reply: 25.7 ×10⁻⁶ cm/s

Task item: Name the reported Papp value associated with the compound Cc1ncc2c(n1)CN(C(=O)c1cc(C(C)C)c(O)cc1O)C2
Reply: 27 ×10⁻⁶ cm/s

Task item: Look up Papp: COCCOc1nc2c(c(N(C)C)n1)CN(C(=O)c1cc(C(C)C)c(O)cc1O)CC2
Reply: 83 ×10⁻⁶ cm/s

Task item: Which value of Papp has been reported for CC(C)c1cc(C(=O)N2CCc3nc(OCCN(C)C)ncc3C2)c(O)cc1O in the records?
Reply: 3.25 ×10⁻⁶ cm/s

Task item: Given CC(C)c1cc(C(=O)N2CCc3nc(OCCCN(C)C)ncc3C2)c(O)cc1O , state its recorded Papp.
Reply: 4.15 ×10⁻⁶ cm/s

====

assay: Intrinsic aqueous solubility of the compound; assay type: physicochemical
measurement name: solubility (µg/mL)
Give the value in µg/mL but do not write µg/mL after it.

Task item: Look up solubility for this molecule: COCCOc1ncc2c(n1)CCN(C(=O)c1cc(C(C)C)c(O)cc1O)C2
Reply: 140

Task item: For the molecule shown here, CNc1nc(OCCOC)nc2c1CN(C(=O)c1cc(C(C)C)c(O)cc1O)CC2 , give the reported solubility.
Reply: 178

Task item: Fill in the blank: the reported solubility of CC(C)c1cc(C(=O)N2CCc3nc(OCCCN(C)C)ncc3C2)c(O)cc1O is ____.
Reply: 156

Task item: Given the entry CC(C)c1cc(C(=O)N2CCc3nc(OCCN(C)C)ncc3C2)c(O)cc1O , report its measured solubility.
Reply: 148

Task item: I am curious: what solubility value has been reported for CC(C)c1cc(C(=O)N2CCc3nc(OCCN4CCOCC4)ncc3C2)c(O)cc1O ?
Reply: 140

Task item: State the recorded solubility for this entry: COCCOc1nc2c(c(OC)n1)CN(C(=O)c1cc(C(C)C)c(O)cc1O)CC2
Reply: 93.5

Task item: Value lookup for solubility; key = COCCOc1nc2c(c(OC(C)C)n1)CN(C(=O)c1cc(C(C)C)c(O)cc1O)CC2
Reply: 40.2

Task item: Fill blank: measured solubility of the molecule CCOc1nc(OCCOC)nc2c1CN(C(=O)c1cc(C(C)C)c(O)cc1O)CC2 is ____.
Reply: 86.1

Task item: Bench note: what solubility did CC(C)c1cc(C(=O)N2CCc3nc(OCCN4CCCCC4)ncc3C2)c(O)cc1O show?
Reply: 175

Task item: State the recorded solubility for this entry: CCCOc1nc(OCCOC)nc2c1CN(C(=O)c1cc(C(C)C)c(O)cc1O)CC2
Reply: 73.6

Task item: GET /values?readout=solubility&item= COCCOc1nc2c(c(N(C)C)n1)CN(C(=O)c1cc(C(C)C)c(O)cc1O)CC2
Reply: 153

Task item: Recorded solubility of COCCOc1nc2c(c(NC3CC3)n1)CN(C(=O)c1cc(C(C)C)c(O)cc1O)CC2 , please.
Reply: 157

Task item: # lookup: solubility of COCCOc1nc2c(c(NC(C)C)n1)CN(C(=O)c1cc(C(C)C)c(O)cc1O)CC2
Reply: 137

Task item: Quick one: solubility for CCNc1nc(OCCOC)nc2c1CN(C(=O)c1cc(C(C)C)c(O)cc1O)CC2 ?
Reply: 192

Task item: What solubility value was documented for this molecule, CCOc1ncc2c(n1)CCN(C(=O)c1cc(C(C)C)c(O)cc1O)C2 ?
Reply: 66

Task item: solubility lookup needed for CC(C)c1cc(C(=O)N2CCc3nc(OCCN4CCCC4)ncc3C2)c(O)cc1O , thanks.
Reply: 146

Task item: Would you kindly share the measured solubility for CCCNc1nc(OCCOC)nc2c1CN(C(=O)c1cc(C(C)C)c(O)cc1O)CC2 ?
Reply: 114

Task item: Fill in the blank: the reported solubility of CCN(CC)CCOc1ncc2c(n1)CCN(C(=O)c1cc(C(C)C)c(O)cc1O)C2 is ____.
Reply: 151

Task item: Report solubility for CCN(CC)c1nc(OCCOC)nc2c1CN(C(=O)c1cc(C(C)C)c(O)cc1O)CC2 please.
Reply: 95.9
